Numbers sourced from patent US20260098102A1.

assayTarget: T1, mouse SIRPA variant hmSIRPA_Δ0 (mouse (with human residues), UniProt P97797 35-513)
T1 construct: FLAG-tagged (pFLAG V5-DEST), on 293α cells
T1 chain: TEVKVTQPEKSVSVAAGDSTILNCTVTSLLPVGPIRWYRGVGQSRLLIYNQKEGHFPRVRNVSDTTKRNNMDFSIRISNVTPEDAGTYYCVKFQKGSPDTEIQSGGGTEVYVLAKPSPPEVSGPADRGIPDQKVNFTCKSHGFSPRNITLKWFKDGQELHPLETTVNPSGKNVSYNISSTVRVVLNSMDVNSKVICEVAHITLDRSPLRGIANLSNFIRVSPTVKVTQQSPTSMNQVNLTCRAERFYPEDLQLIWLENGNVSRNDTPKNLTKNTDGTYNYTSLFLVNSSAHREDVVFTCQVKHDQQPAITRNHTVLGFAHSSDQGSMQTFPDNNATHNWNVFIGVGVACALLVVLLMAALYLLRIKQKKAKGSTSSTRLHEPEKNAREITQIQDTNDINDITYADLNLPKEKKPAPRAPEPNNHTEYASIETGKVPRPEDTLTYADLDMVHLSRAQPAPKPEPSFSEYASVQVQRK
assay: cell-based ELISA on 293α cells expressing FLAG-tagged hmSIRPA_Δ0; Abs 490 normalized to FLAG tag [i]
measurementLabel: binding result

humanized anti-SIRPA antibody hD13_H2L3 (antibody, human IgG4 S228P, kappa, F234A L235A, V domains shown, hH2 heavy chain (IgG4proFALA) and hL3 kappa light chain; also called H2L3 antibody) VH: EVQLVESGGGVVQPGRSLRLSCAASGFTFSDYGMIWVRQAPGKGLEWVASISSSSSYIYYADSVKGRFTISRDNSKNTLYLQMNSLRAEDTAVYYCARRYYGFNYPFDYWGQGTMVTVSS VL: DTQLTQSPSSLSASVGQRVTITCGASKSVRTYMHWYQQKPGKQPKLLIYSASNLEAGVPSRFSGSGSGTDFTLTISSLQPEDFATYYCQQSNEPPYTFGQGTKLEIKR = binds
humanized anti-SIRPA antibody hD13_H1L3 (antibody, human IgG4 S228P, kappa, F234A L235A, V domains shown, hH1 heavy chain (IgG4proFALA) and hL3 kappa light chain; also called hD13_HIL3; HIL3 antibody) VH: QVQLVESGGGVVQPGRSLRLSCAASGFTFSDYGMIWVRQAPGKGLEWVASISSSSSYIYYADSVKGRFTISRDNSKNRLYLQMNSLRAEDTAVYYCARRYYGFNYPFDYWGQGTMVTVSS VL: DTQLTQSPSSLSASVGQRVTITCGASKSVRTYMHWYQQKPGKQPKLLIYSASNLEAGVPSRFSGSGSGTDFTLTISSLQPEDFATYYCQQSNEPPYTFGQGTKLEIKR = binds
humanized anti-SIRPA antibody hD13_H1L4 (antibody, human IgG4 S228P, kappa, F234A L235A, V domains shown, hH1 heavy chain (IgG4proFALA) and hL4 kappa light chain; also called hD13_HIL4; hD13_HIL4h) VH: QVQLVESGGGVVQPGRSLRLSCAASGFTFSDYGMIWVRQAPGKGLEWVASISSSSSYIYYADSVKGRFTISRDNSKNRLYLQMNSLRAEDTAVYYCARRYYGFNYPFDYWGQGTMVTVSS VL: DTVLTQSPDSLAVSLGQRATINCGASKSVRTYMHWYQQKPGQQPKLLIYSASNLEAGVPSRFSGSGSGTDFTLTISSLQAEDVAVYYCQQSNEPPYTFGQGTKVEIKR = binds
human chimeric anti-SIRPA antibody cD13 (antibody, human IgG4 S228P, kappa, F234A L235A, V domains shown, Human IgG4proFALA heavy chain, human kappa light chain; also called cD13 (IgG4pf); human chimeric antibody D13) VH: EVQLVESGGGLVQPGRSLKLSCLASGFTFSDYGMIWVRQAPGKGLEWVASISSSSSYIYYADTVKGRFTISRENAKNTLFLHMTSLRSEDTALYYCARRYYGFNYPFDYWGQGVMVTVSS VL: DTVLTQSPALAVSLGQRVTISCGASKSVRTYMHWYQQKSGQQPKLLIYSASNLEAGVPSRFSGSGSGTDFTLTIDPVEADDIANYYCQQSNEPPYTFGAGTKLELKR = binds
